- experimental-protocol: Study B: urinary excretion and renal clearance
- details: both, human, in vivo, iv, 10 mg/kg, Ae0-t % (percentage of the dose excreted in urine), urine 0–96 h, normal renal function, mean ± SD
measurement-name: dose excreted (%)
Numbers only, in %.

State its dose excreted: CCCCCCCCCCNCCN[C@@]1(C)C[C@H](O[C@H]2[C@H](Oc3c4cc5cc3Oc3ccc(cc3Cl)[C@@H](O)[C@@H](NC(=O)[C@@H](CC(C)C)NC)C(=O)N[C@@H](CC(N)=O)C(=O)N[C@H]5C(=O)N[C@H]3C(=O)N[C@H](C(=O)N[C@H](C(=O)O)c5cc(O)c(CNCP(=O)(O)O)c(O)c5-c5cc3ccc5O)[C@H](O)c3ccc(c(Cl)c3)O4)O[C@H](CO)[C@@H](O)[C@@H]2O)O[C@@H](C)[C@H]1O [telavancin]
62.8

* * *

- experimental-protocol: Study B: urinary excretion and renal clearance
- details: human, in vivo, iv, 10 mg/kg, Ae0–∞% (percentage of the dose excreted in urine, extrapolated to infinity), mild renal impairment, mean ± SD
measurement-name: dose excreted (%)
Give bare numbers, in %.

State its dose excreted: CCCCCCCCCCNCCN[C@@]1(C)C[C@H](O[C@H]2[C@H](Oc3c4cc5cc3Oc3ccc(cc3Cl)[C@@H](O)[C@@H](NC(=O)[C@@H](CC(C)C)NC)C(=O)N[C@@H](CC(N)=O)C(=O)N[C@H]5C(=O)N[C@H]3C(=O)N[C@H](C(=O)N[C@H](C(=O)O)c5cc(O)c(CNCP(=O)(O)O)c(O)c5-c5cc3ccc5O)[C@H](O)c3ccc(c(Cl)c3)O4)O[C@H](CO)[C@@H](O)[C@@H]2O)O[C@@H](C)[C@H]1O
58.2

* * *

- experimental-protocol: Study B: urinary excretion and renal clearance
- details: human, in vivo, iv, 10 mg/kg, Ae0–∞% (percentage of the dose excreted in urine, extrapolated to infinity), severe renal impairment, mean ± SD
measurement-name: dose excreted

State its dose excreted: CCCCCCCCCCNCCN[C@@]1(C)C[C@H](O[C@H]2[C@H](Oc3c4cc5cc3Oc3ccc(cc3Cl)[C@@H](O)[C@@H](NC(=O)[C@@H](CC(C)C)NC)C(=O)N[C@@H](CC(N)=O)C(=O)N[C@H]5C(=O)N[C@H]3C(=O)N[C@H](C(=O)N[C@H](C(=O)O)c5cc(O)c(CNCP(=O)(O)O)c(O)c5-c5cc3ccc5O)[C@H](O)c3ccc(c(Cl)c3)O4)O[C@H](CO)[C@@H](O)[C@@H]2O)O[C@@H](C)[C@H]1O
28.2%

* * *

- experimental-protocol: Study B: urinary excretion and renal clearance
- details: both, human, in vivo, iv, 10 mg/kg, Ae0-t % (percentage of the dose excreted in urine), urine 0–96 h, moderate renal impairment, mean ± SD
measurement-name: dose excreted (%)
One number for each entry, in %.

State its dose excreted: CCCCCCCCCCNCCN[C@@]1(C)C[C@H](O[C@H]2[C@H](Oc3c4cc5cc3Oc3ccc(cc3Cl)[C@@H](O)[C@@H](NC(=O)[C@@H](CC(C)C)NC)C(=O)N[C@@H](CC(N)=O)C(=O)N[C@H]5C(=O)N[C@H]3C(=O)N[C@H](C(=O)N[C@H](C(=O)O)c5cc(O)c(CNCP(=O)(O)O)c(O)c5-c5cc3ccc5O)[C@H](O)c3ccc(c(Cl)c3)O4)O[C@H](CO)[C@@H](O)[C@@H]2O)O[C@@H](C)[C@H]1O [telavancin]
48.4
